Test system: MCF7
Assay: Antiproliferative activity against human MCF7 cells assessed as cell growth inhibition incubated for 48 hrs by MTT assay
Assay type: functional, cell-based
Details: MCF7, 48 h
pIC50: −log10 of the molar value.
Kindly return Criterion met if reported pIC50 is no lower than 6; return Criterion not met if it is lower.

CC1=C(O)C(=O)C=C2C1=CC=C1[C@@]2(C)CC[C@@]2(C)[C@@H]3C[C@](C)(C(=O)O)CC[C@]3(C)CC[C@]12C = Criterion not met
COC(=O)c1cnn(CCCOC(=O)[C@]2(C)CC[C@]3(C)CC[C@]4(C)C5=CC=C6C(=CC(=O)C(O)=C6C)[C@]5(C)CC[C@@]4(C)[C@@H]3C2)c1 = Criterion met

Moving on to the next compound.
Q) Record "CCOC(=O)c1cnn(CCCOC(=O)[C@]2(C)CC[C@]3(C)CC[C@]4(C)C5=CC=C6C(=CC(=O)C(O)=C6C)[C@]5(C)CC[C@@]4(C)[C@@H]3C2)c1" ; criterion: pIC50 no lower than 6. Met?
A) Criterion met

###

pIC50 values for the molecules below.
Tested on: HCT-116
Test: Antiproliferative activity against human HCT-116 cells assessed as cell growth inhibition incubated for 48 hrs by MTT assay
Format: functional, cell-based
Details: HCT-116, 48 h
Interpret pIC50 as the negative base-10 log of the concentration measured in mol/L.

CCOC(=O)c1cnn(CCCOC(=O)[C@]2(C)CC[C@]3(C)CC[C@]4(C)C5=CC=C6C(=CC(=O)C(O)=C6C)[C@]5(C)CC[C@@]4(C)[C@@H]3C2)c1 = 6.39
CC1=C(O)C(=O)C=C2C1=CC=C1[C@@]2(C)CC[C@@]2(C)[C@@H]3C[C@](C)(C(=O)O)CC[C@]3(C)CC[C@]12C = 5.72
CC1=C(O)C(=O)C=C2C1=CC=C1[C@@]2(C)CC[C@@]2(C)[C@@H]3C[C@](C)(C(=O)OCCCCn4cccn4)CC[C@]3(C)CC[C@]12C = 6.05

Q) Sample "COC(=O)c1cnn(CCCCOC(=O)[C@]2(C)CC[C@]3(C)CC[C@]4(C)C5=CC=C6C(=CC(=O)C(O)=C6C)[C@]5(C)CC[C@@]4(C)[C@@H]3C2)c1" — what was its pIC50?
A) 6.16

Q) Please give the result for "COC(=O)c1cnn(CCCOC(=O)[C@]2(C)CC[C@]3(C)CC[C@]4(C)C5=CC=C6C(=CC(=O)C(O)=C6C)[C@]5(C)CC[C@@]4(C)[C@@H]3C2)c1" too.
A) 6.23

Q) Input "CCOC(=O)c1cnn(CCCCOC(=O)[C@]2(C)CC[C@]3(C)CC[C@]4(C)C5=CC=C6C(=CC(=O)C(O)=C6C)[C@]5(C)CC[C@@]4(C)[C@@H]3C2)c1"
A) 6.28

Q) Same question for "CC1=C(O)C(=O)C=C2C1=CC=C1[C@@]2(C)CC[C@@]2(C)[C@@H]3C[C@](C)(C(=O)OCCCCn4cc([N+](=O)[O-])cn4)CC[C@]3(C)CC[C@]12C" please.
A) 6.19

Q) Next molecule: "CC1=C(O)C(=O)C=C2C1=CC=C1[C@@]2(C)CC[C@@]2(C)[C@@H]3C[C@](C)(C(=O)OCCCCn4cc(C)cn4)CC[C@]3(C)CC[C@]12C"
A) 6.06

###

Tested on: BGC-823
Test: Antiproliferative activity against human BGC-823 cells assessed as cell growth inhibition incubated for 48 hrs by MTT assay
Assay type: functional, cell-based
Details: BGC-823, 48 h
ATTRIBUTE_MEASURED: IC50 (nM)
Could you give me the number in nM? Just the number is fine.

The following compounds have reported results that may help.
CC1=C(O)C(=O)C=C2C1=CC=C1[C@@]2(C)CC[C@@]2(C)[C@@H]3C[C@](C)(C(=O)O)CC[C@]3(C)CC[C@]12C [CELASTROL] = 1100
CCOC(=O)c1cnn(CCCCOC(=O)[C@]2(C)CC[C@]3(C)CC[C@]4(C)C5=CC=C6C(=CC(=O)C(O)=C6C)[C@]5(C)CC[C@@]4(C)[C@@H]3C2)c1 = 330

Q) Name the recorded IC50 for "COC(=O)c1cnn(CCCCOC(=O)[C@]2(C)CC[C@]3(C)CC[C@]4(C)C5=CC=C6C(=CC(=O)C(O)=C6C)[C@]5(C)CC[C@@]4(C)[C@@H]3C2)c1" .
A) 340

###

Test system: MCF7
Assay: Antiproliferative activity against human MCF7 cells assessed as cell growth inhibition incubated for 48 hrs by MTT assay
Format: functional, cell-based
Conditions: MCF7, 48 h
ATTRIBUTE_MEASURED: pIC50
// pIC50 is dimensionless: -log10 of concentration (M)

Worked examples, 4 molecules total:
COC(=O)c1cnn(CCCCOC(=O)[C@]2(C)CC[C@]3(C)CC[C@]4(C)C5=CC=C6C(=CC(=O)C(O)=C6C)[C@]5(C)CC[C@@]4(C)[C@@H]3C2)c1 = 6.08
CCOC(=O)c1cnn(CCCCOC(=O)[C@]2(C)CC[C@]3(C)CC[C@]4(C)C5=CC=C6C(=CC(=O)C(O)=C6C)[C@]5(C)CC[C@@]4(C)[C@@H]3C2)c1 = 6.14
CC1=C(O)C(=O)C=C2C1=CC=C1[C@@]2(C)CC[C@@]2(C)[C@@H]3C[C@](C)(C(=O)OCCCCn4cc(C)cn4)CC[C@]3(C)CC[C@]12C = 6.00
CC1=C(O)C(=O)C=C2C1=CC=C1[C@@]2(C)CC[C@@]2(C)[C@@H]3C[C@](C)(C(=O)OCCCCn4cc([N+](=O)[O-])cn4)CC[C@]3(C)CC[C@]12C = 6.13

--- query ---
Q) What measured pIC50 goes with "CC1=C(O)C(=O)C=C2C1=CC=C1[C@@]2(C)CC[C@@]2(C)[C@@H]3C[C@](C)(C(=O)OCCCCn4cccn4)CC[C@]3(C)CC[C@]12C" ?
A) 5.96
